# Test system: S. epidermidis CIP 81.55
# ASSAY SUMMARY: MIC, microdilution method (9.1)
# Assay type: cell-based, Staphylococcus epidermidis
# REPORTED CONDITIONS: Staphylococcus epidermidis, CIP81, read after 18 h, read-out: MIC
# Protocol: The microdilution method recommended by the Clinical and Laboratory Standard Institute [M07-A8, Vol. 29, No. 2] was used. The activity of indolic compounds was tested against 29 bacterial strains belonging to 17 different species and 12 different genera (Staphylococcus, Streptococcus, Enterococcus, Listeria, Bacillus, Haemophilus, Escherichia, Klebsiella, Enterobacter, Serratia, Pseudomonas, and Acinetobacter). […]
READOUT NAME: MIC (µg/mL)

MOLECULE: NCCCCNC(=O)C(NC(=O)c1c[nH]c2ccc(Br)cc12)c1c[nH]c2ccc(Br)cc12 (stereo not shown)
READOUT NAME: MIC
RELATION SYMBOL: =
READING: 8

MOLECULE: CC(C)(C)OC(=O)NCC(NC(=O)c1c[nH]c2cc(Cl)ccc12)c1c[nH]c2ccc(Cl)cc12 (stereo not shown)
READOUT NAME: MIC
RELATION SYMBOL: =
READING: 4

MOLECULE: CC(C)(C)OC(=O)NCC(NC(=O)c1c[nH]c2ccccc12)c1c[nH]c2ccc(Br)cc12 (stereo not shown)
READOUT NAME: MIC
RELATION SYMBOL: =
READING: 8

MOLECULE: COC(=O)C(NC(=O)c1c[nH]c2ccc(Br)cc12)c1c[nH]c2ccc(Br)cc12 (stereo not shown)
READOUT NAME: MIC
RELATION SYMBOL: =
READING: 4

MOLECULE: CC(C)(C)OC(=O)NCC(NC(=O)c1c[nH]c2cc(Br)ccc12)c1c[nH]c2ccc(Br)cc12 (stereo not shown)
READOUT NAME: MIC
RELATION SYMBOL: =
READING: 2

MOLECULE: CC(C)(C)OC(=O)NCC(NC(=O)c1c[nH]c2ccc(Cl)cc12)c1c[nH]c2ccc(Cl)cc12 (stereo not shown)
READOUT NAME: MIC
RELATION SYMBOL: =
READING: 4

MOLECULE: CC(NC(=O)c1c[nH]c2ccc(Br)cc12)c1c[nH]c2ccc(Br)cc12 (stereo not shown)
READOUT NAME: MIC
RELATION SYMBOL: =
READING: 2

MOLECULE: CC(NC(=O)c1c[nH]c2ccc(F)cc12)c1c[nH]c2ccc(Br)cc12 (stereo not shown)
READOUT NAME: MIC
RELATION SYMBOL: =
READING: 16

MOLECULE: O=C(NC(CO)c1c[nH]c2ccc(Br)cc12)c1c[nH]c2ccc(Br)cc12 (stereo not shown)
READOUT NAME: MIC
RELATION SYMBOL: =
READING: 4

MOLECULE: CC(C)(C)OC(=O)NCC(NC(=O)c1c[nH]c2ccccc12)c1c[nH]c2cc(Br)ccc12 (stereo not shown)
READOUT NAME: MIC
RELATION SYMBOL: =
READING: 16

MOLECULE: O=C(NC(C(=O)NCCCCO)c1c[nH]c2ccc(Br)cc12)c1c[nH]c2ccc(Br)cc12 (stereo not shown)
READOUT NAME: MIC
RELATION SYMBOL: >
READING: 32

MOLECULE: O=C(NC(C(=O)NCCO)c1c[nH]c2ccc(Br)cc12)c1c[nH]c2ccc(Br)cc12 (stereo not shown)
READOUT NAME: MIC
RELATION SYMBOL: =
READING: 32

MOLECULE: CC(C)(C)OC(=O)NCC(NC(=O)c1ccccc1)c1c[nH]c2ccc(Br)cc12 (stereo not shown)
READOUT NAME: MIC
RELATION SYMBOL: >
READING: 128

MOLECULE: CC(C)(C)OC(=O)NCC(NC(=O)c1cccnc1)c1c[nH]c2ccc(Br)cc12 (stereo not shown)
READOUT NAME: MIC
RELATION SYMBOL: >
READING: 128

MOLECULE: CC(C)(C)OC(=O)NCC(NC(=O)c1c[nH]c2ccc(Br)cc12)c1c[nH]c2cc(Br)ccc12 (stereo not shown)
READOUT NAME: MIC
RELATION SYMBOL: =
READING: 1

MOLECULE: CC(C)(C)OC(=O)NCC(NC(=O)c1c[nH]c2cc(Br)ccc12)c1c[nH]c2ccccc12 (stereo not shown)
READOUT NAME: MIC
RELATION SYMBOL: =
READING: 8

MOLECULE: CC(C)(C)OC(=O)NCC(NC(=O)c1c[nH]c2ccc(Br)cc12)c1c[nH]c2ccccc12 (stereo not shown)
READOUT NAME: MIC
RELATION SYMBOL: =
READING: 8

MOLECULE: CC(C)(C)OC(=O)NCC(NC(=O)c1c[nH]c2ccc(Br)cc12)c1c[nH]c2ccc(Br)cc12 (stereo not shown)
READOUT NAME: MIC
RELATION SYMBOL: =
READING: 2

MOLECULE: O=C(NC(C(=O)O)c1c[nH]c2ccc(Br)cc12)c1c[nH]c2ccc(Br)cc12 (stereo not shown)
READOUT NAME: MIC
RELATION SYMBOL: >
READING: 32

MOLECULE: CC(C)(C)OC(=O)NCC(NC(=O)C(F)(F)F)c1c[nH]c2ccc(Br)cc12 (stereo not shown)
READOUT NAME: MIC
RELATION SYMBOL: >
READING: 128

MOLECULE: Cn1cc(C(=O)NC(CNC(=O)OC(C)(C)C)c2c[nH]c3ccc(Br)cc23)c2cc(Br)ccc21 (stereo not shown)
READOUT NAME: MIC
RELATION SYMBOL: >
READING: 128

MOLECULE: CC(C)(C)OC(=O)NCC(NC(=O)c1c[nH]c2cc(Br)ccc12)c1c[nH]c2cc(Br)ccc12 (stereo not shown)
READOUT NAME: MIC
RELATION SYMBOL: =
READING: 2

----------
# Test system: S. epidermidis ATCC 12228
# ASSAY SUMMARY: MIC, microdilution method (9.1)
# Type: cell-based, Staphylococcus epidermidis
# REPORTED CONDITIONS: Staphylococcus epidermidis, ATCC12228, read after 18 h, read-out: MIC
Examples of compounds with documented MIC follow.

COMPOUND: CC(C)(C)OC(=O)NCC(NC(=O)c1c[nH]c2ccc(Br)cc12)c1c[nH]c2ccccc12 (stereo not shown)
RELATION SYMBOL: =
MIC [µg/mL]: 8
//
COMPOUND: CC(C)(C)OC(=O)NCC(NC(=O)c1c[nH]c2cc(Br)ccc12)c1c[nH]c2ccccc12 (stereo not shown)
RELATION SYMBOL: =
MIC [µg/mL]: 8
//
COMPOUND: CC(C)(C)OC(=O)NCC(NC(=O)c1cccnc1)c1c[nH]c2ccc(Br)cc12 (stereo not shown)
RELATION SYMBOL: >
MIC [µg/mL]: 128
//
COMPOUND: CC(C)(C)OC(=O)NCC(NC(=O)c1c[nH]c2ccccc12)c1c[nH]c2ccccc12 (stereo not shown)
RELATION SYMBOL: >
MIC [µg/mL]: 128
//
COMPOUND: COC(=O)C(NC(=O)c1c[nH]c2ccc(Br)cc12)c1c[nH]c2ccc(Br)cc12 (stereo not shown)
RELATION SYMBOL: =
MIC [µg/mL]: 4
//
COMPOUND: O=C(NC(CO)c1c[nH]c2ccc(Br)cc12)c1c[nH]c2ccc(Br)cc12 (stereo not shown)
RELATION SYMBOL: =
MIC [µg/mL]: 4
//
COMPOUND: CC(C)(C)OC(=O)NCC(NC(=O)c1c[nH]c2ccc(Br)cc12)c1c[nH]c2ccc(Br)cc12 (stereo not shown)
RELATION SYMBOL: =
MIC [µg/mL]: 1
//
COMPOUND: CC(C)(C)OC(=O)NCC(NC(=O)c1ccccc1)c1c[nH]c2ccc(Br)cc12 (stereo not shown)
RELATION SYMBOL: >
MIC [µg/mL]: 128
//
COMPOUND: CC(C)(C)OC(=O)NCC(NC(=O)c1c[nH]c2cc(Br)ccc12)c1c[nH]c2ccc(Br)cc12 (stereo not shown)
RELATION SYMBOL: =
MIC [µg/mL]: 1
//
COMPOUND: O=C(NC(C(=O)O)c1c[nH]c2ccc(Br)cc12)c1c[nH]c2ccc(Br)cc12 (stereo not shown)
RELATION SYMBOL: >
MIC [µg/mL]: 32
//
COMPOUND: CC(NC(=O)c1c[nH]c2ccc(F)cc12)c1c[nH]c2ccc(Br)cc12 (stereo not shown)
RELATION SYMBOL: =
MIC [µg/mL]: 16
//
COMPOUND: CC(NC(=O)c1c[nH]c2ccc(Br)cc12)c1c[nH]c2ccc(Br)cc12 (stereo not shown)
RELATION SYMBOL: =
MIC [µg/mL]: 2
//
COMPOUND: CC(C)(C)OC(=O)NCC(NC(=O)c1c[nH]c2ccccc12)c1c[nH]c2ccc(Br)cc12 (stereo not shown)
RELATION SYMBOL: =
MIC [µg/mL]: 8
//
COMPOUND: O=C(NC(C(=O)NCCO)c1c[nH]c2ccc(Br)cc12)c1c[nH]c2ccc(Br)cc12 (stereo not shown)
RELATION SYMBOL: =
MIC [µg/mL]: 32
//
COMPOUND: O=C(NC(C(=O)NCCCCO)c1c[nH]c2ccc(Br)cc12)c1c[nH]c2ccc(Br)cc12 (stereo not shown)
RELATION SYMBOL: =
MIC [µg/mL]: 32
//
COMPOUND: CC(C)(C)OC(=O)NCC(NC(=O)c1c[nH]c2ccccc12)c1c[nH]c2cc(Br)ccc12 (stereo not shown)
RELATION SYMBOL: =
MIC [µg/mL]: 16
//
COMPOUND: CC(C)(C)OC(=O)NCC(NC(=O)C(F)(F)F)c1c[nH]c2ccc(Br)cc12 (stereo not shown)
RELATION SYMBOL: >
MIC [µg/mL]: 128
//
COMPOUND: CC(C)(C)OC(=O)NCC(NC(=O)c1c[nH]c2cc(Br)ccc12)c1c[nH]c2cc(Br)ccc12 (stereo not shown)
RELATION SYMBOL: =
MIC [µg/mL]: 2
//
COMPOUND: NCCCCNC(=O)C(NC(=O)c1c[nH]c2ccc(Br)cc12)c1c[nH]c2ccc(Br)cc12 (stereo not shown)
RELATION SYMBOL: =
MIC [µg/mL]: 8
